System under test: h-GABA-A α5β3γ2 (Homo sapiens, UniProt P18507+P31644)
Sequence (P31644 32-462): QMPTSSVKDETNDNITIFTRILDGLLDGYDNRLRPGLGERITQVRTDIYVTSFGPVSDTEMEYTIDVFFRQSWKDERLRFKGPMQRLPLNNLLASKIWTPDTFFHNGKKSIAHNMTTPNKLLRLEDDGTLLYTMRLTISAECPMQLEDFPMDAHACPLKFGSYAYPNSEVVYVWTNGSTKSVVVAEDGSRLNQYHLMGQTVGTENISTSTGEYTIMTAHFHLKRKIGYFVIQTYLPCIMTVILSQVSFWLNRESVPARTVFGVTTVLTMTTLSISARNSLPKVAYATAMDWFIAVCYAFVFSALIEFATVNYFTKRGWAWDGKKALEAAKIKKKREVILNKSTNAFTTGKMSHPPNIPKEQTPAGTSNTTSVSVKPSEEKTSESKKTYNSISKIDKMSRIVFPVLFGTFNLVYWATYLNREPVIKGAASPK
Sequence (P28472 26-473 partner): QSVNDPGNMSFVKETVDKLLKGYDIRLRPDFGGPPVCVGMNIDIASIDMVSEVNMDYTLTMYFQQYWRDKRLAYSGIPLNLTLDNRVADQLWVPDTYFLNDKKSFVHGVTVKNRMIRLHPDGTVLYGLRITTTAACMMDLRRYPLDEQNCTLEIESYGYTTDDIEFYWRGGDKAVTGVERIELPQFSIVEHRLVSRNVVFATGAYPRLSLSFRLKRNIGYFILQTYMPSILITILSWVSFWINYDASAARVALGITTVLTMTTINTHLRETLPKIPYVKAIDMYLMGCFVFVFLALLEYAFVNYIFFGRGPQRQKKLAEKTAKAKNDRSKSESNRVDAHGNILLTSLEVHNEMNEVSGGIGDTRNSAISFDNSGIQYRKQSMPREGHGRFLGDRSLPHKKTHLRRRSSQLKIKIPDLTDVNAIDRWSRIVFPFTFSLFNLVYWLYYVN
Sequence (P18507 40-475): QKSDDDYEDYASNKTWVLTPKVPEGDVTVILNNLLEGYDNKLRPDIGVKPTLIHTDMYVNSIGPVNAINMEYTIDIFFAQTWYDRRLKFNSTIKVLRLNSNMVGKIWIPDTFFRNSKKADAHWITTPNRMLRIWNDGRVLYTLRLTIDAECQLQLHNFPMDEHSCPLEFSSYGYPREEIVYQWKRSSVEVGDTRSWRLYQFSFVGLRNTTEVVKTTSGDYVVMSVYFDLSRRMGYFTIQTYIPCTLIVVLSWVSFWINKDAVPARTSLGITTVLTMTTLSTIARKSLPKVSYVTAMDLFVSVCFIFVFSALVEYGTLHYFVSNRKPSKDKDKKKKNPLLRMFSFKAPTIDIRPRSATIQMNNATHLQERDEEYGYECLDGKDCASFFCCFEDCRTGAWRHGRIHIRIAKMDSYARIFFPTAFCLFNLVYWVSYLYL
Measurement description: Two-electrode voltage clamp electrophysiology in Xenopus laevis oocytes expressing GABAA receptors, modulation of GABA EC20 current
Assay type: cell-based
Parameters: host or cells: Xenopus laevis oocytes micro-injected with RNA transcripts of the subunits
Assay conditions: % modulation of GABA EC20 = 100*(Fold increase-1); Table 1
Test readout: Efficacy (GABA) %
Just the number plus its unit, please.

Short answer please: Efficacy (GABA) %, h-GABA-A α5β3γ2 (Homo sapiens, UniProt P18507+P31644), entry Cc1ccc(-c2noc(C)c2Cn2ncc(N3C[C@@H](C)O[C@@H](C)C3)cc2=O)cn1 [Example 7]
253%

Same question for Cc1onc(-c2ccc(Cl)nc2)c1Cn1ncc(-c2cnn(C)c2)cc1=O [Example 215] please.
119%

// next record COc1ncc(-c2cnn(Cc3c(-c4ccc(Cl)nn4)noc3C)c(=O)c2)cc1Cl [Example 282]
166%

Follow-up item: Cc1ccc(-c2noc(C)c2Cn2ncc(N(C)CC(C)(C)O)cc2=O)cn1 [Example 70]
106%

What about this compound? Cc1onc(-c2ncc(C(F)(F)F)cn2)c1Cn1ncc(N2CC3(C2)CC(F)(F)CO3)cc1=O [Example 250]
46%

Moving on to Cc1ccc(-c2noc(C)c2Cn2ncc(-c3cnn(CC4CC4)c3)cc2=O)cn1 [Example 157]
86%

Field entry: Cc1cc(-c2noc(C)c2Cn2ncc(N3C[C@@H](C)O[C@@H](C)C3)cc2=O)no1 [Example 62]
88%

How about this compound: COC1CN(c2cnn(Cc3c(-c4ccc(C)nn4)noc3C)c(=O)c2)C1 [Example 169]
97%

Can you check Cc1ccc(-c2noc(C)c2Cn2ncc(N3CC4(C[C@H](O)CO4)C3)cc2=O)cn1 [Example 131] next?
105%

Input Cc1onc(-c2ccc(C3CC3)nc2)c1Cn1ncc(N2CC3(C2)CC(F)(F)CO3)cc1=O [Example 260]
123%

Check CCOc1ncc(-c2cnn(Cc3c(-c4ccc(C)nc4)noc3C)c(=O)c2)cc1C [Example 180] too.
196%

Here is the next compound: Cc1ccc(-c2noc(C)c2Cn2ncc(N3CCN4C(=O)CCC4C3)cc2=O)cn1 (centres unmarked) [Example 43]
174%

Next: Cc1cc(-c2noc(C)c2Cn2ncc(N3CCN(C4CC4)CC3)cc2=O)no1 [Example 63]
41%

Field entry: CCn1cc(-c2cnn(Cc3c(-c4ccc(C)nc4)noc3C)c(=O)c2)cn1 [Example 155]
133%

Then what about the compound COC1CN(c2cnn(Cc3c(-c4ncc(C(F)(F)F)cn4)noc3C)c(=O)c2)C1 [Example 229] ?
81%

Try CCCn1cc(-c2cnn(Cc3c(-c4ccc(C)nc4)noc3C)c(=O)c2)cn1 [Example 210] next.
143%

What do you have for Cc1ccc(-c2noc(C)c2Cn2ncc(N3CC[C@H](C(C)(C)O)C3)cc2=O)cn1 [Example 120] ?
172%

###

Provide the recorded Fold increase h-GABA-A α5β3γ2 oocyte for the entries that follow.
System under test: h-GABA-A α5β3γ2 (Homo sapiens, UniProt P18507+P31644)
Measurement description: Two-electrode voltage clamp electrophysiology in Xenopus laevis oocytes expressing GABAA receptors, modulation of GABA EC20 current
Type: cell-based
Set-up: host or cells: Xenopus laevis oocytes micro-injected with RNA transcripts of the subunits
Assay conditions: test compound at approx. 30 fold its Ki, GABA at EC20; Table 1
// keep it numeric: no unit symbol after the value

I'd like to know its Fold increase h-GABA-A α5β3γ2 oocyte. The compound in question is Cc1ccc(-c2noc(C)c2Cn2ncc(N3CC4(CCC(C)CO4)C3)cc2=O)nn1 (single isomer, unassigned) [Example 313]
2.03

And what about the compound Cc1ccc(-c2noc(C)c2Cn2ncc(N(C)C3CC3)cc2=O)cn1 [Example 64] ?
2.08

Query COC1CN(c2cnn(Cc3c(-c4ccc(Cl)nc4)noc3C)c(=O)c2)C1 [Example 212] next
2.18

Also need Cc1ccc(-c2noc(C)c2Cn2ncc(N3CC[C@H](C(=O)NC4CC4)C3)cc2=O)cn1 [Example 57] , thanks.
2.98

What about this compound? C[C@@H]1CN(c2cnn(Cc3conc3-c3ccc(C(F)(F)F)nc3)c(=O)c2)C[C@H](C)O1 [Example 72]
2.67

And then Cc1ccc(-c2noc(C)c2Cn2ncc(-c3cnn(C(F)F)c3)cc2=O)cn1 [Example 154] , what is it?
3.44

Also Cc1ncc(-c2noc(C)c2Cn2ncc(N(C)C)cc2=O)cc1F [Example 102] ?
1.86

What would you report for Cc1ccc(-c2noc(C)c2Cn2ncc(-c3ccc(C4CC4)nc3)cc2=O)cn1 [Example 173] ?
1.8

Another: CO[C@@H]1COC2(C1)CN(c1cnn(Cc3c(-c4ccc(C)nc4)noc3C)c(=O)c1)C2 [Example 133]
2.72

Consider next the compound Cc1ccc(-c2noc(C)c2Cn2ncc(N3CC4(C[C@@H](F)CO4)C3)cc2=O)cn1 [Example 200] in the same way.
1.86

Same for Cc1ccc(-c2noc(C)c2Cn2ncc(N3CCC(C(=O)NC4CC4)CC3)cc2=O)cn1 [Example 27]
2

Entry Cc1ccc(-c2noc(C)c2Cn2ncc(-c3ccnc(N4CCNCC4)c3)cc2=O)cn1 [Example 163] please
2.65

Proceed to Cc1ccc(-c2noc(C)c2Cn2ncc(N3CC4(CCC(F)CO4)C3)cc2=O)cn1 (single isomer, unassigned) [Example 275]
1.89

# repeat for Cc1ccc(-c2noc(C)c2Cn2ncc(N3CCOC(C)(C)C3)cc2=O)cn1 [Example 6]
2.45

Try this compound too: Cc1ccc(-c2noc(C)c2Cn2ncc(N3CCN4C(=O)CCC4C3)cc2=O)cn1 (stereo not shown) [Example 43]
2.74

Field entry: Cc1ccc(-c2noc(C)c2Cn2ncc(N3CCN(C4CC4)[C@@H](C)C3)cc2=O)cn1 [Example 60]
1.97

Hey, just so you know, these numbers are from patent US11840528B2.
